# Experimental System: Human Histamine H3 Receptor (Homo sapiens, UniProt Q9Y5N1)
# Construct: membrane preparation)
# Sequence (Q9Y5N1 whole entry): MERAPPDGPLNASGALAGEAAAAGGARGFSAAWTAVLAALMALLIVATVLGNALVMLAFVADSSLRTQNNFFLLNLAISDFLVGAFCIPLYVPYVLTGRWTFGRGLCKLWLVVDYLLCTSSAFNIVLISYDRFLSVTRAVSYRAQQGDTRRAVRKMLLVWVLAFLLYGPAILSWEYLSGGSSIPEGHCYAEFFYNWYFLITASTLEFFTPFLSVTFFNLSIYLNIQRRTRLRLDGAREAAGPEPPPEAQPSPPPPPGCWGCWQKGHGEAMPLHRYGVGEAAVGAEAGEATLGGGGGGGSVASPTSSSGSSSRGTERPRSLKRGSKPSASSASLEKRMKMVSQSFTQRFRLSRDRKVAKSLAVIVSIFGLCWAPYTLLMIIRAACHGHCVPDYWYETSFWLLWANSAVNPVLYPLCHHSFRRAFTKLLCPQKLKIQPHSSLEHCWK
# Assay Info: Methyl histamine binding in Human Histamine H3 Receptor Cell Line
# Measurement Conditions: read-out: hH3 Binding Ki
pKi: −log10 of the molar value. Where a name gives a salt, the structure may show the parent alone.
Measurement Label: pKi

Form: compound = `CN(C(=O)c1ccc(Cn2cnc3ccccc32)cc1)C1CCN(C2CCC2)CC1` ; pKi = < 7.00

# compound `Cc1nc2ccccc2n1Cc1ccc(C(=O)N(C)[C@@H]2CCN(C3CCCCC3)C2)cc1` ; its pKi = 7.30 to 8.00

Query `Cc1nc2cc(C#N)ccc2n1-c1ccc(C(=O)N(C)[C@@H]2CCN(C(C)C)C2)cc1` yields pKi of ≥ 8.00

Entry under test: `CN(C(=O)c1ccc(-n2cccn2)cc1)C1CCN(C2CCCC2)CC1` . Its pKi was < 7.00

Sure, the documented pKi for `Cc1nc2ccccc2n1-c1ccc(C(=O)N(C)C2CCN(C(C)C)CC2)cc1F` is ≥ 8.00

The value of pKi measured for the compound `Cc1nc2ccccc2n1-c1ccc(C(=O)N(C)C2CCN(C3CCCCC3)CC2)cc1` turned out to be < 7.00

// pKi value for `CN(C(=O)c1ccc(-n2ncc3ccccc32)cc1)[C@@H]1CCN(C2CCCC2)C1` : 7.30 to 8.00

GET /value?item= `Cc1nc2ccccc2n1-c1ccc(C(=O)N(C)[C@@H]2CCN(C3CCC3)C2)cc1F` &field=pKi returns 7.30 to 8.00

Noted for `Cc1nc2ccccc2n1Cc1ccc(C(=O)N(C)C2CCNCC2)cc1` : its pKi reads < 7.00

The measured pKi associated with `CN(C(=O)c1ccc(-n2cc3ccccc3n2)cc1)C1CCN(C2CCC2)CC1` reads < 7.00

Record `Cc1nc2cc(C#N)ccc2n1-c1ccc(C(=O)N(C)[C@@H]2CCNC2)cc1` , field pKi: < 7.00

// pKi value for `Cc1nc2cc(C#N)ccc2n1-c1ccc(C(=O)N(C)[C@@H]2CCN(C3CCC3)C2)cc1` : ≥ 8.00

Quick note, pKi for `Cc1nc2ccccc2n1-c1ccc(C(=O)N(C)[C@@H]2CCN(C(C)C)C2)c(Cl)c1` landed at 7.30 to 8.00

Input `CN(C(=O)c1ccc(-n2ncc3ccccc32)cc1)[C@@H]1CCN(C2CCC2)C1` . Output pKi: ≥ 8.00

Quick note, pKi for `Cc1nc2ccccc2n1-c1ccc(C(=O)N(C)C2CCN(C3CCC3)CC2)cc1` landed at 7.30 to 8.00

For `CN(C(=O)c1ccc(Cn2ncc3ccccc32)cc1)[C@@H]1CCN(C2CCC2)C1` the compound record lists pKi as 7.30 to 8.00

The compound listed as `CN(C(=O)c1ccc(Cn2ncc3ccccc32)cc1)[C@@H]1CCNC1` shows pKi equal to < 7.00

`CC(C)N1CCC(N(C)C(=O)c2ccc(Cn3cccn3)cc2)CC1` has a reported pKi of < 7.00

Documented pKi of `Cc1nc2cc(C#N)ccc2n1-c1ccc(C(=O)N(C)[C@@H]2CCN(C3CCCC3)C2)cc1` : 7.30 to 8.00

get_value(item= `CN(C(=O)c1ccc(-n2cccn2)cc1)C1CCN(C2CCC2)CC1` , readout=pKi) returns < 7.00

// field: pKi; key: `Cc1nc2ccccc2n1-c1ccc(C(=O)N(C)C2CCN(C(C)C)CC2)cc1` ; value = ≥ 8.00

Per the record, `CC(C)N1CC[C@@H](N(C)C(=O)c2ccc(Cn3ncc4ccccc43)cc2)C1` has pKi of 7.00 to 7.30

response.value for CCN(C(=O)c1ccc(-n2c(C)nc3ccccc32)cc1)[C@@H]1CCNC1 [Example 138, hydrochloride] (field: pKi) = < 7.00

Sample `Cc1nc2ccccc2n1-c1ccc(C(=O)N(C)C2CCN(C3CCCC3)CC2)cc1` ; pKi observed: ≥ 8.00

The compound listed as `CC(C)N1CCC(N(C)C(=O)c2ccc(-n3cc4ccccc4n3)cc2)CC1` shows pKi equal to 7.00 to 7.30

Short answer for `CC(C)N1CC[C@@H](N(C)C(=O)c2ccc(-n3ncc4ccccc43)cc2)C1` : pKi was ≥ 8.00

Reported pKi of `CN(C(=O)c1ccc(Cn2cccn2)cc1)C1CCN(C2CCC2)CC1` : < 7.00

The recorded pKi for `CN(C(=O)c1ccc(Cn2cnc3ccccc32)cc1)C1CCN(C2CCCC2)CC1` is < 7.00

Field pKi (entry `CN(C(=O)c1ccc(-n2ncc3ccccc32)cc1)C1CCNCC1` ) reads < 7.00

The recorded pKi for entry `Cc1nc2ccccc2n1Cc1ccc(C(=O)N(C)C2CCN(C(C)C)CC2)cc1` equals 7.00 to 7.30

Lab note: measured pKi of `CC(C)N1CCC(N(C)C(=O)c2ccc(Cn3cnc4ccccc43)cc2)CC1` was 7.00 to 7.30

In plain terms, `CN(C(=O)c1ccc(-n2cc3ccccc3n2)cc1)[C@@H]1CCN(C2CCCC2)C1` has a documented pKi of ≥ 8.00

Sample `CN(C(=O)c1ccc(Cn2cnc3ccccc32)cc1)C1CCNCC1` ; pKi observed: < 7.00

pKi reported for this compound `CN(C(=O)c1ccc(Cn2cccn2)cc1)C1CCN(C2CCCC2)CC1` : < 7.00

Quick note, pKi for `CN(C(=O)c1ccc(Cn2ncc3ccccc32)cc1)C1CCN(C2CCC2)CC1` landed at < 7.00

Data origin, for the record: patent US20080293771A1
